Biological target: T1, human TROP2 protein (Sino Biological, #10428-H08H) (human, UniProt P09758 27-274)
T1 construct: bought protein; also called human Trop2 protein antigen (His tag); not shown: His tag
T1 sequence (looked up): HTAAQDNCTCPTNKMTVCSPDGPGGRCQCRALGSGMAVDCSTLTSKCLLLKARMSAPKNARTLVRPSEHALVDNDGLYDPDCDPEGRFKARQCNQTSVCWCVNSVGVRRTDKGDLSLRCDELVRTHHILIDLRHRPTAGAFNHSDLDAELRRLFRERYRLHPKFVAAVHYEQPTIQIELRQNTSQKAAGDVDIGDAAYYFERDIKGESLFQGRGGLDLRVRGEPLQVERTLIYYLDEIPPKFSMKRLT
Experiment: BLI, Octet RED96, AHC sensor

# Binder, Response
data = [
    ("PR001163 (antibody, human IgG1, kappa, V domains shown, fully human IgG1/kappa; also called antibody No. (24)) VH: QVQLVESGGDVVQPGRSLRLSCEASGFTFSHYGMHWVRQAPGKGLEWVAVVWYDGIKKYYVESVKGRFTISRDNSKNTLYLQMNRLRAEDTAVYYCARDGGFGELNYYGLDVWGQGTTVTVSS VL: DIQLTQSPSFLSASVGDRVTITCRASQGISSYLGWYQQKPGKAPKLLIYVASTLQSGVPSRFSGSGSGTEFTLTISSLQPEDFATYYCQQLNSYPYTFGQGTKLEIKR", 0.396),
    ("PR001155 (antibody, human IgG1, kappa, V domains shown, fully human IgG1/kappa; also called antibody No. (18)) VH: QVQLVQSGGGVVQPGRSLRLSCAASGFTFSHYGMHWVRQAPGKGLEWVAVIWYDGIKKYYVESVKGRFTISRDNSKNTLYLQMNRLRAEDTAVYYCARDGGFGELNYYGLDVWGQGTTVTVSS VL: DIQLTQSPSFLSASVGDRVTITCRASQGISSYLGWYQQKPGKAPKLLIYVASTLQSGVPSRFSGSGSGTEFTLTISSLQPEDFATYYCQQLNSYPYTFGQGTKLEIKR", 0.406),
    ("PR001162 (antibody, human IgG1, kappa, V domains shown, fully human IgG1/kappa; also called antibody No. (23)) VH: QVQLVESGGGVVQPGTSLRLSCVASGFTFSNDGMHWVRQAPGMGLEWVAIMWFDGGSKYYADSVKGRFTISRDNSKNTLYLQMNNLRAEDTAVYYCARDHPHYLGSGSFDYWGQGTLVTVSS VL: EIVLTQSPATLSLSPGERATLSCRASQSVSSYLAWYQQKPGQAPRLLIYDASNRATGIPARFSGSGSGTDFTLTISSLQAEDVAVYYCQQYYSTPYTFGQGTKLEIKR", 0.366),
]
